Hello, the source for this data is patent US20090203908A1, in case you need it.

biological target: UniProt:Q03181; test: PPAR activating effect, GAL4-hPPARδ (LBD) luciferase reporter in CV-1 cells
Sequence (Q03181 211-439 limits assumed): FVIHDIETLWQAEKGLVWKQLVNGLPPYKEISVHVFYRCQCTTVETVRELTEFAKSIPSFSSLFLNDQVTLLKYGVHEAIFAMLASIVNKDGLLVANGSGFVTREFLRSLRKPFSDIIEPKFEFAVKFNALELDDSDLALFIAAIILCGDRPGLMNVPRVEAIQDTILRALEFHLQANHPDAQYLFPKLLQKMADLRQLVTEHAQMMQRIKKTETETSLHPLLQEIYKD
Parameter: EC50 (µM)
Express it in µM; write the number only.

Cc1cc(C(=O)CCc2sc(-c3ccc(C(F)(F)F)cc3)nc2CN2CCN(c3ccc(OC(C)C)cc3)CC2)ccc1OC(C)(C)C(=O)O [Example 16]
2.3

EC50 reading for Cc1cc(C(=O)CCc2sc(-c3ccc(C(F)(F)F)cc3)nc2CN2CCN(c3ccc(C(F)(F)F)cc3)CC2)ccc1OC(C)(C)C(=O)O [Example 5] : 5.2

EC50 reading for Cc1ccc(N2CCN(Cc3nc(-c4ccc(C(F)(F)F)cc4)sc3CCC(=O)c3ccc(OC(C)(C)C(=O)O)c(C)c3)CC2)cc1 [Example 6] : 4.9

EC50 reading for COc1ccc(N2CCN(Cc3nc(-c4ccc(C(F)(F)F)cc4)sc3CCC(=O)c3ccc(OC(C)(C)C(=O)O)c(C)c3)CC2)cc1 [Example 3] : 0.92

EC50 reading for COc1cccc(N2CCN(Cc3nc(-c4ccc(C(F)(F)F)cc4)sc3CCC(=O)c3ccc(OC(C)(C)C(=O)O)c(C)c3)CC2)c1 [Example 4] : 4.4

EC50 reading for CCOc1ccc(N2CCN(Cc3nc(-c4ccc(C(F)(F)F)cc4)sc3CCC(=O)c3ccc(OC(C)(C)C(=O)O)c(C)c3)CC2)cc1 [Example 13] : 1.1

EC50 reading for Cc1cc(C(=O)CCc2sc(-c3ccc(C(F)(F)F)cc3)nc2CN2CCN(c3ccc(C(C)C)cc3)CC2)ccc1OC(C)(C)C(=O)O [Example 11] : 3

EC50 reading for Cc1cc(C(=O)CCc2sc(-c3ccc(C(F)(F)F)cc3)nc2CN2CCN(c3ccc(OC(F)(F)F)cc3)CC2)ccc1OC(C)(C)C(=O)O [Example 15] : 6.3

EC50 reading for COc1ccc(N2CCN(Cc3nc(-c4ccc(C(F)(F)F)cc4)sc3CCC(=O)c3ccc(OC(C)(C)C(=O)O)c(C)c3)CC2)cc1OC [Example 12] : 3.8

----------
Target: hPPAR α (LBD) (Homo sapiens, UniProt Q07869)
Sequence (Q07869 239-466 limits assumed): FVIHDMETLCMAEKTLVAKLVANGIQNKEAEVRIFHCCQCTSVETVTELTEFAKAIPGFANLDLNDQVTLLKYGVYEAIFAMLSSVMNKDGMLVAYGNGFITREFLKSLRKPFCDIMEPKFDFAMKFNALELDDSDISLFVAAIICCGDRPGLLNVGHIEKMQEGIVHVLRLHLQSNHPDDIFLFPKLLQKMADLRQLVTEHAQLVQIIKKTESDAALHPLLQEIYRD
Assay: PPAR activating effect, GAL4-hPPARα (LBD) luciferase reporter in CV-1 cells
Readings of EC50 for the listed compounds
Express it in nM; write the number only.

Cc1cc(C(=O)CCc2sc(-c3ccc(C(F)(F)F)cc3)nc2CN2CCN(c3ccc(OC(F)(F)F)cc3)CC2)ccc1OC(C)(C)C(=O)O
290

EC50 reading for Cc1cc(C(=O)CCc2sc(-c3ccc(C(F)(F)F)cc3)nc2CN2CCN(c3ccc(C(F)(F)F)cc3)CC2)ccc1OC(C)(C)C(=O)O : 90

----------
target: UniProtKB P37231; experiment: PPAR activating effect, GAL4-hPPARγ (LBD) luciferase reporter in CV-1 cells
Sequence (P37231 238-503 limits assumed): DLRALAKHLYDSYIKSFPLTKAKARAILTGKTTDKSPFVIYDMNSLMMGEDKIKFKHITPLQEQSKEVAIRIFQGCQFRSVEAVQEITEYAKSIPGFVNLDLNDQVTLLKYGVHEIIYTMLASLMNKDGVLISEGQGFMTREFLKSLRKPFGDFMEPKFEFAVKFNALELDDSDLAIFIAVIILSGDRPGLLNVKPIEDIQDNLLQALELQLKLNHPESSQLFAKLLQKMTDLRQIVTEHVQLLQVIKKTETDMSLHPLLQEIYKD
Readings of pEC50 for the listed compounds
# pEC50 = -log10(concentration in molar units)

Look over these answered cases.
Cc1cc(C(=O)CCc2sc(-c3ccc(C(F)(F)F)cc3)nc2CN2CCN(c3ccc(C(F)(F)F)cc3)CC2)ccc1OC(C)(C)C(=O)O
5.49
Cc1ccc(N2CCN(Cc3nc(-c4ccc(C(F)(F)F)cc4)sc3CCC(=O)c3ccc(OC(C)(C)C(=O)O)c(C)c3)CC2)cc1
6.31
Cc1cc(C(=O)CCc2sc(-c3ccc(C(F)(F)F)cc3)nc2CN2CCN(c3ccc(OC(F)(F)F)cc3)CC2)ccc1OC(C)(C)C(=O)O
6.12

pEC50 reading for Cc1cc(C(=O)CCc2sc(-c3ccc(C(F)(F)F)cc3)nc2CN2CCN(c3ccc(C(C)C)cc3)CC2)ccc1OC(C)(C)C(=O)O : 6.52

pEC50 reading for COc1ccc(N2CCN(Cc3nc(-c4ccc(C(F)(F)F)cc4)sc3CCC(=O)c3ccc(OC(C)(C)C(=O)O)c(C)c3)CC2)cc1OC : 5.77

pEC50 reading for CCOc1ccc(N2CCN(Cc3nc(-c4ccc(C(F)(F)F)cc4)sc3CCC(=O)c3ccc(OC(C)(C)C(=O)O)c(C)c3)CC2)cc1 : 6.55

pEC50 reading for Cc1cc(C(=O)CCc2sc(-c3ccc(C(F)(F)F)cc3)nc2CN2CCN(c3ccc(OC(C)C)cc3)CC2)ccc1OC(C)(C)C(=O)O : 6.54

pEC50 reading for COc1ccc(N2CCN(Cc3nc(-c4ccc(C(F)(F)F)cc4)sc3CCC(=O)c3ccc(OC(C)(C)C(=O)O)c(C)c3)CC2)cc1 : 6.18

pEC50 reading for COc1cccc(N2CCN(Cc3nc(-c4ccc(C(F)(F)F)cc4)sc3CCC(=O)c3ccc(OC(C)(C)C(=O)O)c(C)c3)CC2)c1 : 5.89

----------
Target: hPPAR α (LBD) (Homo sapiens, UniProt Q07869)
Sequence (Q07869 239-466 limits assumed): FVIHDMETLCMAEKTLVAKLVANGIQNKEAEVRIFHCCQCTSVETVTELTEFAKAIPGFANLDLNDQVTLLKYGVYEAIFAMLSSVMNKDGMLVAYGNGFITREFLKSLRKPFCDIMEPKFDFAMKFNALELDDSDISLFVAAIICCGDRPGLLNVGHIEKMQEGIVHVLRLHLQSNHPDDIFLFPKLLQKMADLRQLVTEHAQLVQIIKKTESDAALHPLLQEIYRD
Assay: PPAR activating effect, GAL4-hPPARα (LBD) luciferase reporter in CV-1 cells
Parameter: pEC50
# pEC50 = -log10(concentration in molar units)

Look over these answered cases.
COc1cccc(N2CCN(Cc3nc(-c4ccc(C(F)(F)F)cc4)sc3CCC(=O)c3ccc(OC(C)(C)C(=O)O)c(C)c3)CC2)c1 [Example 4]
6.68
CCOc1ccc(N2CCN(Cc3nc(-c4ccc(C(F)(F)F)cc4)sc3CCC(=O)c3ccc(OC(C)(C)C(=O)O)c(C)c3)CC2)cc1 [Example 13]
6.48
Cc1cc(C(=O)CCc2sc(-c3ccc(C(F)(F)F)cc3)nc2CN2CCN(c3ccc(OC(C)C)cc3)CC2)ccc1OC(C)(C)C(=O)O [Example 16]
6.74
Cc1ccc(N2CCN(Cc3nc(-c4ccc(C(F)(F)F)cc4)sc3CCC(=O)c3ccc(OC(C)(C)C(=O)O)c(C)c3)CC2)cc1 [Example 6]
6.26
COc1ccc(N2CCN(Cc3nc(-c4ccc(C(F)(F)F)cc4)sc3CCC(=O)c3ccc(OC(C)(C)C(=O)O)c(C)c3)CC2)cc1OC [Example 12]
6.03

Attention now turns to another entry.
Record Cc1cc(C(=O)CCc2sc(-c3ccc(C(F)(F)F)cc3)nc2CN2CCN(c3ccc(C(C)C)cc3)CC2)ccc1OC(C)(C)C(=O)O [Example 11] has hPPAR α (LBD) (Homo sapiens, UniProt Q07869) pEC50 equal to 7.04
